molecular target: KEAP1 C151 (Homo sapiens, UniProt Q14145); construct: treating 500 μg of cell lysate generated from MDA-MB-468 breast cancer cells with DMSO or compound; endogenous in cells; assay: Nrf2 TMT measurement: in vitro TE50 for KEAP1 C151 (IA-DTB competition, targeted TMT mass spectrometry) in MDA-MB-468 cell lysate; conditions: in vitro target engagement of KEAP1 C151, targeted TMT, read-out: KEAP1_C151 TE50
Sequence (Q14145 whole entry): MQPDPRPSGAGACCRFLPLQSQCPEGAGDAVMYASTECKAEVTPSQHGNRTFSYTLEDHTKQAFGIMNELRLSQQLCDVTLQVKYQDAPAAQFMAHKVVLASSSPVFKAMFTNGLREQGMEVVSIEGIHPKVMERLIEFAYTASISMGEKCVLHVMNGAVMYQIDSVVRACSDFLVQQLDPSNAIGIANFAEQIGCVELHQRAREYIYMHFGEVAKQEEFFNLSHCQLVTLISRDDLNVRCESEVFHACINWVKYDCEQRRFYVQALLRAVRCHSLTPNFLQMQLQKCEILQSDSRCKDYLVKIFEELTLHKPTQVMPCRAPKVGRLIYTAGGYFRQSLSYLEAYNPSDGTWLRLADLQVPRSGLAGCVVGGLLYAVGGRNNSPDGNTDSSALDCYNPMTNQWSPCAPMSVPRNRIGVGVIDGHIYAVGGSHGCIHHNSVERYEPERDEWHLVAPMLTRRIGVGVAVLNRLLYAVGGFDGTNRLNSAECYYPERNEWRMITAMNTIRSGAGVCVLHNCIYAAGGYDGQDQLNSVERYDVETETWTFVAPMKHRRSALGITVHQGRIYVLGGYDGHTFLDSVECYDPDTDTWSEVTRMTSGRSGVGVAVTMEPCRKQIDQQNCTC
Exam item: assign Yes to entries whose IC50 is below 90 nM and No to entries at or above 90 nM. Note that a value of exactly 90 nM receives No.

Worked set:
> print(dat)
                                   compound  assigned.class
1  C=CC(=O)N1CCOC[C@H]1c1cc(Cl)cc(-c2ccc3c(c2)C(=O)NC3)c1 (single isomer, unassigned)             Yes
2  C=CC(=O)N1CCS(=O)(=O)CC1c1cc(Cl)cc(-c2cc[nH]c(=O)c2)c1 (single isomer, unassigned)             Yes
3  C=CC(=O)N1[C@H](C)COC[C@H]1c1cc(Cl)cc(-c2ncnc3[nH]cnc23)c1 (single isomer, unassigned)             Yes
4  C=CC(=O)N1CCOC[C@H]1c1cc(Cl)cc(-c2ncn(CC(N)=O)n2)c1 (single isomer, unassigned)              No

With those in mind, consider the next compound.
Is 90 nM strictly greater than the compound's reported IC50? compound: C=CC(=O)N1CCOC[C@H]1c1cc(Cl)cc(-c2nc(Cl)ncc2N)c1 (single isomer, unassigned)
No
